Field: IC50. System: human Bub1 (Homo sapiens (Human), UniProt O43683). Provenance: assorted publications.

COMPOUND | PROPERTY LABEL | OBSERVED MEASUREMENT
Cc1nsc(Nc2cnc(C(F)(F)F)cn2)c1C(=O)Nc1ccc(O[C@H]2CCN(CC(F)(F)F)C[C@@H]2F)nc1 | IC50 | > 20 µM
Cc1noc(-c2cccc(NC(=O)c3c(C)nsc3Nc3cnc4ccccc4n3)c2)n1 | IC50 | ≥ 20 µM
CCOc1ccc(NC(=O)c2c(C)nsc2Nc2cnc3ccccc3n2)cn1 | IC50 | > 20 µM
Cc1nsc(Nc2cnc3cc(F)ccc3n2)c1C(=O)Nc1ccc(S(N)(=O)=O)cc1 | IC50 | > 20 µM
COc1cnc(-c2nn(Cc3ccccc3F)c3c2CCCC3)nc1Nc1ccncc1 | IC50 | 0.01 µM
CSCCOc1cnc(-c2nn(Cc3ccccc3F)c3c2CCC3)nc1Nc1ccncc1C(N)=O | IC50 | 0.02 µM

Input `Cc1nsc(Nc2cncc(C(F)(F)F)n2)c1C(=O)Nc1ccc(C(=O)NC2CCN(C(=O)OC(C)(C)C)CC2)cc1` . Output IC50: > 20 µM

For this compound ( `CCOc1cc(F)c(Cn2nc(-c3nc(Nc4ccncc4)n(CCO)n3)c(C)c2C2CC2)c(F)c1` ), measured IC50 is 0.022 µM

Memo: `Cc1nsc(Nc2cnc3ccccc3n2)c1C(=O)Nc1ccc(C(=O)N2CCN(CC(F)F)CC2)cc1` , reported IC50: > 20 µM

###

pIC50: −log10 of the molar value.
Consider the following pIC50 data for human Bub1 (Homo sapiens (Human)), collected from several reports.

MOLECULE | TEST SYSTEM | PROPERTY LABEL | OBSERVED MEASUREMENT
CC(=O)Nc1ccc(NC(=O)c2c(C)nsc2Nc2ccc(C#N)cn2)cn1 | human Bub1 (Homo sapiens (Human)) | pIC50 | < 4.70
CNC(=O)c1ccnc(Nc2snc(C)c2C(=O)Nc2ccc(F)c(F)c2)c1 | human Bub1 (Homo sapiens (Human)) | pIC50 | < 4.70
COc1ncc(NC(=O)c2c(C)nsc2Nc2ccc(C#N)cn2)cc1C | human Bub1 (Homo sapiens (Human)) | pIC50 | < 4.70
COc1cnc(-c2nn(Cc3c(Cl)cnn3C)c(C3CC3)c2C)nc1Nc1ccncc1 | human Bub1 (Homo sapiens (Human)) | pIC50 | 8.05
Cc1nsc(Nc2cnc(C(F)(F)F)cn2)c1C(=O)Nc1ccc(F)c(OC2CCN(CC(F)F)C2)c1 (centres unmarked) | human Bub1 (Homo sapiens (Human)) | pIC50 | ≤ 4.70
COc1ccc(NC(=O)c2c(C)nsc2Nc2nc3cccnc3s2)cn1 | human Bub1 (Homo sapiens (Human)) | pIC50 | 6.68

The reported value for `Cc1nsc(Nc2cnc3ccccc3n2)c1C(=O)Nc1ccc(Oc2cccc(C(F)(F)F)c2)nc1` in terms of pIC50 is ≤ 4.70

Entry Cc1nsc(Nc2cnc(C(F)(F)F)cn2)c1C(=O)Nc1ccc(OCC2CCN(CC(F)(F)F)C2)nc1 (centres unmarked) — recorded pIC50 = ≤ 4.70

pIC50 reading for `COc1ccc(NC(=O)c2c(C)nsc2Nc2ncc(C(=O)N3CCOCC3)s2)cc1F` : < 4.70

pIC50 reported for this molecule Cc1nsc(Nc2cnc(C(F)(F)F)cn2)c1C(=O)Nc1ccc(OCC2CCN(CCC(F)(F)F)CC2(F)F)nc1 (centres unmarked) : < 4.70

get_value(item= Cc1nsc(Nc2cncc(C(F)(F)F)n2)c1C(=O)Nc1ccc(OC2CCCN(C(=O)OC(C)(C)C)C2)nc1 (centres unmarked) , readout=pIC50) returns < 4.70

Sample `Cc1nsc(Nc2cnc(C(F)(F)F)cn2)c1C(=O)Nc1ccc(OC[C@@H]2CCCN(CC(F)(F)F)C2)nc1` ; pIC50 observed: < 4.70

The molecule `Cc1nsc(Nc2cnc(C(F)(F)F)cn2)c1C(=O)Nc1ccc(OC2CCN(CCC(F)(F)F)CC2)nc1` showed pIC50 equal to ≤ 4.70

Lookup result for `COc1cnc(-c2nn(Cc3c(C)noc3C)c(C3CC3)c2C)nc1Nc1ccncc1C(N)=O` ; measured pIC50: 7.80

Looking up `COc1cnc(-c2nn(Cc3ccccc3F)c3c2CCC3)nc1Nc1ccncc1C#N` , I found its pIC50 recorded as 6.70

Briefly, pIC50 measured for `CNS(=O)(=O)c1ccc(NC(=O)c2c(C)nsc2Nc2cnc(C(F)(F)F)cn2)cc1` : < 4.70

###

Across several publications, the following IC50 results were reported for UniProt:O43683.

MOLECULE | PROPERTY LABEL | OBSERVED MEASUREMENT
COc1cnc(-c2cc(OC)n(Cc3ccccc3F)n2)nc1Nc1ccncn1 | IC50 | 3.6 µM
COc1c(NC(C)=O)nc(-c2nn(Cc3ccccc3F)c3c2CCC3)nc1Nc1ccncc1 | IC50 | 0.12 µM
Cc1nsc(Nc2cnc(C(F)(F)F)cn2)c1C(=O)Nc1ccc(F)c(OCC2CCN(CCF)CC2)c1 | IC50 | ≥ 20 µM
Cc1nsc(Nc2cnc3ccccc3n2)c1C(=O)Nc1ccc(Oc2ccccc2)nc1 | IC50 | > 20 µM
CCOc1cc(F)c(Cn2cc(C)c(-c3ncc(OC)c(Nc4ccncn4)n3)n2)c(F)c1 | IC50 | 0.085 µM
Cc1nsc(Nc2cnc(C(F)(F)F)cn2)c1C(=O)Nc1ccc(OCCNC(=O)OC(C)(C)C)nc1 | IC50 | > 20 µM
Cc1nsc(Nc2cnc(C(F)(F)F)cn2)c1C(=O)Nc1ccc(F)c(O[C@@H]2CCN(CCC(F)(F)F)C2)c1 | IC50 | > 20 µM
CCCCN1CC[C@H](Oc2ccc(NC(=O)c3c(C)nsc3Nc3cnc(C(F)(F)F)cn3)cn2)[C@H](F)C1 | IC50 | > 20 µM
Cc1nsc(Nc2ccc(C#N)cn2)c1C(=O)Nc1ccc(NC2CCCN(C(=O)OC(C)(C)C)C2)nc1 (stereo not shown) | IC50 | > 20 µM
N#Cc1cnccc1Nc1nc(-c2nn(Cc3ccccc3F)c3c2CCC3)ncc1O | IC50 | 0.07 µM

Assay UniProt:O43683, sample `Cc1nsc(Nc2cnc(C(F)(F)F)cn2)c1C(=O)Nc1ccc(OC2CCN(C)CC2)nc1` , IC50 read: > 20 µM

Bench note, UniProt:O43683: entry Cc1nsc(Nc2cnc(C(F)(F)F)cn2)c1C(=O)Nc1ccc(OCC2CCN(CC(F)(F)F)CC2(F)F)nc1 (stereo not shown) , its IC50 = > 20 µM

Assay UniProt:O43683, sample `CCOc1cc(F)c(Cn2nc(-n3cc(Nc4ccncn4)cn3)c3ccccc32)c(F)c1` , IC50 read: 0.026 µM

UniProt:O43683 IC50 of `Cc1nsc(Nc2cnc(C(F)(F)F)cn2)c1C(=O)Nc1ccc(O[C@H]2CCN(CCC(F)(F)F)C2)nc1` is ≥ 20 µM

IC50 on UniProt:O43683 for `Cc1nsc(Nc2cnc(C(F)(F)F)cn2)c1C(=O)Nc1ccc(F)c(OCCCN(C)CC(F)(F)F)c1` is > 20 µM

Lab entry: UniProt:O43683 assay, molecule `Cc1nsc(Nc2cnc(C(F)(F)F)cn2)c1C(=O)Nc1ccc(OCC2CCN(CCF)CC2)nc1` , IC50 = ≥ 20 µM

Response field IC50 (UniProt:O43683) for item `Cc1nsc(Nc2cnc3ccccc3n2)c1C(=O)Nc1cccc(C(=O)NC(C)C)c1` : 0.32 µM

Readout IC50 for `CC(=O)N1CCC(Oc2ccc(NC(=O)c3c(C)nsc3Nc3cnc4ccccc4n3)cn2)CC1` , test system UniProt:O43683, was ≥ 20 µM

Item `Cc1nsc(Nc2cnc(C(F)(F)F)cn2)c1C(=O)Nc1ccc(OC2CCN(CC(F)F)CC2)nc1` ; assay system UniProt:O43683; IC50 reported as ≥ 20 µM

# lookup: `Cc1nsc(Nc2cc(C#N)ccn2)c1C(=O)Nc1cccc(C(=O)OC(C)(C)C)c1` on UniProt:O43683, IC50 = > 20 µM

Hey, UniProt:O43683 data for `Cc1nsc(Nc2cnc3ccccc3n2)c1C(=O)Nc1ccccc1S(C)(=O)=O` : IC50 came out at > 20 µM

Reported UniProt:O43683 IC50 for item `Cc1nsc(Nc2ccc(C#N)cn2)c1C(=O)Nc1ccc(OC2CCNCC2)nc1` was ≥ 20 µM

Given the molecule `Cc1nsc(Nc2cnc(C(F)(F)F)cn2)c1C(=O)Nc1ccc(C(=O)N2CCN(CC(F)F)CC2)cc1` and test system UniProt:O43683, the measured IC50 is > 20 µM

`Cc1nsc(Nc2cnc3ccccc3n2)c1C(=O)Nc1cccc(NS(=O)(=O)C2CCN(CCC(F)(F)F)CC2)c1` on UniProt:O43683 gives IC50 = > 20 µM

Entry `CC(=O)N(C)CCOc1ccc(NC(=O)c2c(C)nsc2Nc2nc3c(C(F)(F)F)cccc3s2)cn1` , tested on UniProt:O43683, has a reported IC50 of ≥ 20 µM

Lab note: molecule `Cc1nsc(Nc2cnc(C(=O)N(C)C)cn2)c1C(=O)Nc1ccc(F)c(F)c1` tested on UniProt:O43683; recorded IC50 was > 20 µM

Value (IC50, UniProt:O43683) for record `CCOc1cc(F)c(Cn2nc(-c3nc(Nc4ccncc4)n(CCOC)n3)c(C)c2C2CC2)c(F)c1` = 0.012 µM

Item Cc1nsc(Nc2cnc3ccccc3n2)c1C(=O)Nc1ccc(OC2CCCN(CC(F)F)C2)nc1 (stereo not shown) was tested on UniProt:O43683; the reported IC50 is ≥ 20 µM

Result for Cc1nsc(Nc2cnc(C(F)(F)F)cn2)c1C(=O)Nc1ccc(OCC2CCN(C(=O)OC(C)(C)C)C2)nc1 (stereo not shown) , tested on UniProt:O43683, IC50: ≥ 20 µM

So the reported IC50 for `Cc1nsc(Nc2cnc3ccccc3n2)c1C(=O)Nc1cccc(C(=O)NCC(=O)O)c1` , on UniProt:O43683, turned out to be 2.7 µM

Tested system UniProt:O43683; IC50 recorded for Cc1nsc(Nc2cnc(C(F)(F)F)cn2)c1C(=O)Nc1ccc(F)c(OCC2CCCN(CCC(F)(F)F)C2)c1 (stereo not shown) was ≥ 20 µM
